Can you tell me chromatographic logD for the items I'm about to list?
experiment: CHI Log D procedure; assay type: physicochemical; details: pH 7.4, CHI Log D
Lab note: write the figure by itself, no unit.

*Q* What measured chromatographic logD goes with CC[C@H](C)[C@@H]1NC(=O)[C@H](CC(=O)O)NC(=O)[C@]2(CC=CCCCC3(CCCC=CCCCCCC[C@@](C)(C(=O)N[C@@H](Cc4ccccc4)C(=O)N[C@@H](Cc4csc5ccccc45)C(=O)N[C@@H](CCC(N)=O)C(N)=O)NC(=O)[C@H](CCC(N)=O)NC(=O)[C@H](Cc4ccccc4)NC(=O)[C@H](C)NC(=O)[C@H](C)NC(=O)[C@H](CCC(=O)O)NC(=O)C[C@@H](CC(=O)O)NC3=O)NC1=O)CCCN2C(C)=O (stereo partly drawn) ?
*A* 2.29

*Q* What measured chromatographic logD goes with CC(=O)N[C@@H](Cc1ccccc1)C(=O)N[C@@H](CC(=O)O)C(=O)N[C@@H](C)C(=O)N[C@]1(C)CCCCCCC=CCOC(=O)N2CC[C@@](C(=O)N[C@@H](Cc3ccccc3)C(=O)N[C@@H](Cc3c[nH]c4ccccc34)C(=O)N[C@@H](CCC(N)=O)C(N)=O)(C2)NC(=O)[C@H](C(C)C)NC(=O)[C@H](Cc2ccc3ccccc3c2)NC(=O)[C@H](C)NC(=O)[C@H](C)NC(=O)[C@H](CC(=O)O)NC(=O)[C@H](CC(=O)O)NC1=O (single isomer, unassigned) ?
*A* 1.4

*Q* What measured chromatographic logD goes with CC(=O)N1CCC[C@]12CC=CCCCC1(CCCC=CCCCOC(=O)N3CC[C@@](C(=O)N[C@@H](Cc4ccsc4)C(=O)N[C@@H](Cc4csc5ccccc45)C(=O)N[C@@H](CCC(N)=O)C(N)=O)(C3)NC(=O)[C@H](CC(N)=O)NC(=O)[C@H](Cc3ccccc3)NC(=O)[C@H](CCCCNC(=O)C3CCN(C4CCN(C)CC4)CC3)NC(=O)[C@H](C)NC(=O)[C@H](CC(=O)O)NC(=O)[C@H](CC(=O)O)NC1=O)NC(=O)[C@H](CC(C)(C)C)NC(=O)[C@H](CC(=O)O)NC2=O (stereo partly drawn) ?
*A* 1.39

*Q* What measured chromatographic logD goes with CC(=O)N1CCC[C@]12CC=CCCCC1(CCCC=CCCCOC(=O)N3CC[C@@](C(=O)N[C@@H](Cc4ccsc4)C(=O)N[C@@H](Cc4csc5ccccc45)C(=O)N[C@@H](CCC(N)=O)C(=O)N[C@@H](CCCCNC(=O)c4ccc(CN(C)C)cc4)C(N)=O)(C3)NC(=O)[C@H](CC(N)=O)NC(=O)[C@H](Cc3ccccc3)NC(=O)[C@H](C)NC(=O)[C@H](C)NC(=O)[C@H](CC(=O)O)NC(=O)[C@H](CC(=O)O)NC1=O)NC(=O)[C@H](CC(C)(C)C)NC(=O)[C@H](CC(=O)O)NC2=O (stereo partly drawn) ?
*A* 1.84

*Q* What measured chromatographic logD goes with CC(=O)N1CCC[C@]12CC=CCCCC1(CCCC=CCCCOC(=O)N3CC[C@@](C(=O)N[C@@H](Cc4ccccc4Cl)C(=O)N[C@@H](Cc4csc5ccccc45)C(=O)N[C@@H](CCC(N)=O)C(N)=O)(C3)NC(=O)[C@H](CC(N)=O)NC(=O)[C@H](Cc3ccccc3)NC(=O)[C@H](C)NC(=O)[C@H](CC(C)C)NC(=O)[C@H](CN(CC(=O)O)CC(F)(F)F)NC(=O)[C@H](CC(=O)O)NC1=O)NC(=O)[C@H](CC(C)(C)C)NC(=O)[C@H](CC(=O)O)NC2=O (stereo partly drawn) ?
*A* 2.45

*Q* What measured chromatographic logD goes with CC[C@H](C)[C@@H]1NC(=O)[C@H](CC(=O)O)NC(=O)[C@]2(CC=CCCCC3(CCCC=CCCCCCC[C@@](C)(C(=O)N[C@@H](Cc4ccccc4)C(=O)N[C@@H](Cc4csc5ccccc45)C(=O)N[C@@H](Cc4ccc(O)cc4)C(N)=O)NC(=O)[C@H](CCC(N)=O)NC(=O)[C@H](Cc4ccccc4)NC(=O)[C@H](C)NC(=O)[C@H](C)NC(=O)[C@H](CCC(=O)O)NC(=O)[C@H](CC(=O)O)NC3=O)NC1=O)CCCN2C(C)=O (stereo partly drawn) ?
*A* 2.57

*Q* What measured chromatographic logD goes with CC(=O)N1CCC[C@]12CC=CCCCC1(CCCC=CCCCCCC[C@@](C)(C(=O)N[C@@H](Cc3ccccc3)C(=O)N[C@@H](Cc3ccc(-c4ccccc4)cc3)C(=O)N[C@@H](CCC(N)=O)C(N)=O)NC(=O)[C@H](C(C)C)NC(=O)[C@H](Cc3ccccc3)NC(=O)[C@H](C)NC(=O)[C@H](C)NC(=O)[C@H](CCC(=O)O)NC(=O)[C@H](CC(=O)O)NC1=O)NC(=O)[C@H](C)NC(=O)[C@H](CC(=O)O)NC2=O (stereo partly drawn) ?
*A* 2.28

*Q* What measured chromatographic logD goes with CC[C@H](C)[C@@H]1NC(=O)[C@H](CC(=O)O)NC(=O)[C@]2(CC=CCCCC3(CCCC=CCCCCCC[C@@](C)(C(=O)N[C@@H](Cc4ccccc4OC)C(=O)N[C@@H](Cc4csc5ccccc45)C(=O)N[C@@H](Cc4c[nH]cn4)C(N)=O)NC(=O)[C@H](CC(N)=O)NC(=O)[C@H](Cc4ccccc4)NC(=O)[C@H](C)NC(=O)[C@H](C)NC(=O)[C@H](CCC(=O)O)NC(=O)[C@H](CC(=O)O)NC3=O)NC1=O)CCCN2C(C)=O (stereo partly drawn) ?
*A* 2.44

*Q* What measured chromatographic logD goes with CC(=O)N1CCC[C@]12CC=CCCCC1(CCCC=CCCCOC(=O)N3CC[C@@](C(=O)N[C@@H](Cc4ccsc4)C(=O)N[C@@H](Cc4csc5ccccc45)C(=O)N[C@@H](CCC(N)=O)C(N)=O)(C3)NC(=O)[C@H](CC(N)=O)NC(=O)[C@H](Cc3ccccc3)NC(=O)[C@H](CCCCNC(=O)CN3CCOCC3)NC(=O)[C@H](C)NC(=O)[C@H](CC(=O)O)NC(=O)[C@H](CC(=O)O)NC1=O)NC(=O)[C@H](CC(C)(C)C)NC(=O)[C@H](CC(=O)O)NC2=O (stereo partly drawn) ?
*A* 1.51
